A collection of molecules and their measured pIC50
tgt: human B-Raf (Homo sapiens)
Construct: Flag; GST; made in house; host or cells: Sf9 insect cells (B-Raf); E. coli (MEK1-GST)
Sequence (P15056 whole entry): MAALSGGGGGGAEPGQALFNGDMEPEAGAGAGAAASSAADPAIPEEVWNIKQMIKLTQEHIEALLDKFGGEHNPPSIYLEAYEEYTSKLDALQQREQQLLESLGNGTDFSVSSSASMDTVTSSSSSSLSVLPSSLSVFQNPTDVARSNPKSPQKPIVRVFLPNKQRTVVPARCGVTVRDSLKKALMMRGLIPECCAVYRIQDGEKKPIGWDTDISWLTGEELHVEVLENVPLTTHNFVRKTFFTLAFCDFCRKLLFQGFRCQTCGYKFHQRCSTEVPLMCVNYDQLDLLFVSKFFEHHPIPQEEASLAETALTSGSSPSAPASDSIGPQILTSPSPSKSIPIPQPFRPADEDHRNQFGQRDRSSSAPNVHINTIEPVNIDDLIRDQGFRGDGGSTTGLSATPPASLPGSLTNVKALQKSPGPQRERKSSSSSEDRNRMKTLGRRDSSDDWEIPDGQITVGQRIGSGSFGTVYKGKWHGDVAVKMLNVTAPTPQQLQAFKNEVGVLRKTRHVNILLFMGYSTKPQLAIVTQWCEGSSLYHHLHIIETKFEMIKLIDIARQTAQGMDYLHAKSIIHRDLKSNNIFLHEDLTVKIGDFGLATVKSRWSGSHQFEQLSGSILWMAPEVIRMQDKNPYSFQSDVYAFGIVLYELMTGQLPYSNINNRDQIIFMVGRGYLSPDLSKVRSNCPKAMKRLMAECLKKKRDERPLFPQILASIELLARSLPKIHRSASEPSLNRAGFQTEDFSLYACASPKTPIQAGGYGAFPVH
protocol text: B-Raf Kinase to MEK1 ELISA
Type: biochemical
test parameters: median; cpd concentrations from 10 μM to 30 nM in half log dilutions; read-out: Median IC50
pIC50: −log10 of the molar value.
quantity measured: pIC50

> print(dat)
                                 smiles.code  quantity.measured  reported.value
 1  O=C(Nc1cccc(-c2ccnc3cc(-c4ccc(Br)cc4)nn23)c1)c1cccc(C(F)(F)F)c1              pIC50          < 5.00
 2  O=C(Nc1cccc(-c2ccnc3cc(-c4ccncc4)nn23)c1)c1ccc(Br)s1              pIC50            6.70
 3  O=C(Nc1cccc(-c2ccnc3c(Br)cnn23)c1)c1ccc(Cl)c(C(F)(F)F)c1              pIC50          < 5.00
 4  CCOC(=O)c1cnn2c(-c3cccc(NC(=O)Cc4cccc(Cl)c4)c3)ccnc12              pIC50          < 5.00
 5  O=C(Nc1cccc(-c2ccnc3ccnn23)c1)c1cccc(C(F)(F)F)c1              pIC50          < 5.00
 6  O=C(Nc1cccc(-c2ccnc3c(-c4cccc(C(F)(F)F)c4)cnn23)c1)c1cccc(C(F)(F)F)c1              pIC50          < 5.00
 7  O=C(Nc1cccc(-c2ccnc3cc(-c4ccnc(NCCCn5ccnc5)c4)nn23)c1)c1cccc(C(F)(F)F)c1              pIC50            7.18
 8  CN(C)CC(=O)Nc1cccc(-c2cnn3c(-c4cccc(NC(=O)c5cccc(C(F)(F)F)c5)c4)ccnc23)c1              pIC50            7.40
 9  O=C(Nc1ccc(F)c(-c2ccnc3ccnn23)c1)c1cccc(C(F)(F)F)c1              pIC50            5.45
10  CCOC(=O)c1cnn2c(-c3cccc(NC(=O)c4cc(C(F)(F)F)cc(Cl)c4F)c3)ccnc12              pIC50          < 5.00
11  CCOC(=O)c1cnn2c(-c3ccc(OCc4ccccc4)c(NC(=O)c4ccc(C)c(C(F)(F)F)c4)c3)ccnc12              pIC50          < 5.00
12  Cc1cc2nccc(-c3cccc(NC(=O)c4ccc(C)c(C(F)(F)F)c4)c3)n2n1              pIC50          < 5.00
